# assay-explanation: M. tuberculosis H37Rv growth inhibitors, H37Rv strain (AID 1626);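 further: bacteria incubated seven days before Alamar blue readout; 0% = bacteria only wells and 100% = bacteria with antibiotic wells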
# settings: stronger effect = higher value, concentration not given here
About 2,000 (0.91%) of roughly 220,000 compounds were called active. Another 2% or so got no clear call; they are omitted. A selection follows. Results with a measured potency or affinity are listed apart.
Attribute: inhibition
API: value field is a number in %; no unit string.

Below are worked cases with known answers.
>  <compound>
Cc1ccc(-c2c[n+](CC(=O)Nc3ccccc3C)c3n2CCC3)cc1

>  <inhibition / %>
5.29

$$$$
>  <compound>
COc1cc(C(CCN2CCCCC2)c2c(OC)cc(OC)c3c(-c4ccccc4)cc(=O)oc23)cc(OC)c1OC (stereo not given)

>  <inhibition / %>
10.2

$$$$
>  <compound>
COCCCNC(=S)N(Cc1ccccc1)Cc1nc2ccccc2c(=O)[nH]1

>  <inhibition / %>
-7.77

$$$$
>  <compound>
CCc1ccc(NC(=O)C[n+]2cc(-c3ccc(C)cc3)n3c2CCC3)cc1

>  <inhibition / %>
0.48

$$$$

Moving on to the next compound.
inhibition reported for this compound `Cc1ccc(NC(=O)C[n+]2cc(-c3ccccc3)n3c2CCC3)cc1` : -1.61

###

# assay-explanation: M. tuberculosis H37Rv growth inhibitors, H37Rv strain (AID 1626);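 further: bacteria incubated seven days before Alamar blue readout; 0% = bacteria only wells and 100% = bacteria with antibiotic wells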
# settings: stronger effect = higher value, concentration not given here
Screen size: about 220,000 compounds; about 2,000 (0.91%) were called active. Inconclusive results (about 2%) are left out. These entries were drawn from the full list. Results with a measured potency or affinity are listed apart.
quantity-measured: inhibition (%)
Number only, in %; omit the unit.

>  <molecule>
CCC(=O)Nc1nnc(-c2ccco2)o1

>  <measurement-unit>
%

>  <inhibition>
10.2

$$$$

Looking up `Cc1ccccc1NC(=O)CSc1nc(N)c2c3c(sc2n1)CSC(C)(C)C3` , I found its inhibition recorded as 53.7

Noted for Cc1ccc(NC(=O)C2CC(=O)Nc3nncn32)cc1 (configuration not stated) : its inhibition reads -5.26

The recorded inhibition for `S=C1NCCNC(=S)NCCOCCOCCOCCN1` is -1.99

Note to self: inhibition recorded for `COc1ccc(-c2[nH]ncc2CN2CCC(N3CCSCC3)CC2)cc1F` was -4.08

For reference, reported inhibition for `O=C(Nc1nnc(-c2ccco2)o1)C1CC1` stands at 4.4

Notebook: `Cc1ccc(C2=NC(=O)/C(=C/c3cc(O)c(O)c(Br)c3)S2)cc1` , inhibition read as -2.49

Recorded inhibition (molecule `COc1cccc(-n2nnc3c(=O)n(CC(=O)N4CCC(Cc5ccccc5)CC4)cnc32)c1` ): 2.62

Entry `CCN1CCN(c2cc(C(C)C)nc3c(-c4ccccc4)c(C)nn23)CC1` ; inhibition = 11.2

For reference, reported inhibition for `COc1ccccc1OCC#CCN1CCCCCC1` stands at 4.4

Consider `CC(=O)OCCNc1cc(SC(C)C)c2nonc2c1[N+](=O)[O-]` . Its measured inhibition is 1.55

inhibition recorded for this molecule, `Cc1nn2c(N3CCN(C4CCCC4)CC3)cc(C(C)(C)C)nc2c1-c1ccccc1` , is 8.34

Field inhibition (entry `CC(C)(C)Nc1nc(SCc2ccccc2)nc(N2CCOCC2)n1` ) reads 1.1

Form: molecule = `O=S(=O)(CS(=O)(=O)c1ccc(Cl)cc1)c1ccc(Cl)cc1` ; inhibition = 6.17

Just so you know, measured inhibition for `CCOC(=O)N/N=C/C=C/c1ccccc1` came out at -6.43

For record `Clc1ccc(CSc2ncn[nH]2)cc1` the listed inhibition is 74.3

The measured inhibition associated with `NC(=O)CSc1nc(N)c2c3c(sc2n1)CCCCC3` reads -1.55

Input Cn1cc(/C=N\NC(=O)C2COc3ccccc3O2)c2ccccc21 (configuration not stated) . Output inhibition: 11.9

The recorded inhibition for entry `COc1ccc(NC(=S)NCCCN2CCOCC2)cc1` equals -0.5

###

# assay-explanation: M. tuberculosis H37Rv growth inhibitors, H37Rv strain (AID 1626);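 further: bacteria incubated seven days before Alamar blue readout; 0% = bacteria only wells and 100% = bacteria with antibiotic wells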
# settings: stronger effect = higher value, concentration not given here
Hit rate of the full screen: of about 220,000 compounds, about 2,000 (0.91%) were called active. Inconclusive results (about 2%) are left out. Not all results are given here. Potency and affinity values are given separately.
inhibition values for the molecules below.
Reply numerically in %, unit not repeated.

// worked examples, inhibition included
>  <molecule>
COc1ccc(CCNC2CCCCC2)cc1OC

>  <measurement-unit>
%

>  <observed-result>
5.74

$$$$
>  <molecule>
C=CCNC(=O)c1ccc2c(c1)S(=O)(=O)c1ccccc1C2=O

>  <measurement-unit>
%

>  <observed-result>
-9.32

$$$$
>  <molecule>
COc1ccc(/C=C/C(=O)c2ccc(Cl)cc2)c(OC)c1

>  <measurement-unit>
%

>  <observed-result>
7.24

$$$$
>  <molecule>
COc1ccccc1/C=C/C(=O)c1ccc(Cl)cc1

>  <measurement-unit>
%

>  <observed-result>
19.9

$$$$
>  <molecule>
Cc1cccc(NC(=S)NCc2cccs2)c1C

>  <measurement-unit>
%

>  <observed-result>
9.19

$$$$
>  <molecule>
O=C(COC(=O)c1ccco1)Nc1ccccc1

>  <measurement-unit>
%

>  <observed-result>
-8.55

$$$$
>  <molecule>
CCC(/C=C1\Sc2ccc(OC)cc2N1CC)=C\c1sc2ccc(OC)cc2[n+]1CCCS(=O)(=O)[O-]

>  <measurement-unit>
%

>  <observed-result>
0.61

$$$$
>  <molecule>
COCCNc1ccc(-c2nn(C)c(=O)c3ccccc23)cc1[N+](=O)[O-]

>  <measurement-unit>
%

>  <observed-result>
-0.74

$$$$
>  <molecule>
O=C(/C=C/c1ccccc1Cl)c1ccc(O)cc1

>  <measurement-unit>
%

>  <observed-result>
36.8

$$$$
>  <molecule>
O=C(Nc1ccccc1)c1ccc(CSc2ncccn2)cc1

>  <measurement-unit>
%

>  <observed-result>
3.69

$$$$

Reported inhibition for `COc1ccccc1N1CCN(c2cc(=O)n(Cc3ccc(F)cc3)c(=O)[nH]2)CC1` was 12.4

molecule `COc1ccc2[nH]c(=O)c(CN(C(=O)c3cccnc3)c3ccccc3C)cc2c1` , inhibition observed: -2.62

Given item CCOC(=O)C(C)Sc1nc(=O)n2cc(C)ccc2n1 (centres undefined) , the value recorded as its inhibition is 3.92

// recorded inhibition for CCN(CCCNC(=O)C1CCC(=O)N1Cc1ccccc1Cl)c1cccc(C)c1 (centres undefined) : 4.14

For `Cc1ccc(C)c(CSCC(=O)NCc2cccs2)c1` the molecule record lists inhibition as -7.19

Entry `CCc1cc(-c2n[nH]c(C)c2-c2nc(C)cs2)c(O)cc1OC` ; inhibition = 4.46

The molecule CC(=O)OC(C(=O)Nc1ccccc1)C(C)S(=O)(=O)c1ccccc1 (centres undefined) showed inhibition equal to -4.23

// sample `O=C(N/N=C/C=C\c1ccc([N+](=O)[O-])cc1)c1cccnc1` , its inhibition was -15.7

Lookup result for `CCN1C/C(=C/c2sccc2C)c2nc3ccccc3c(C(=O)O)c2C1` ; measured inhibition: -0.78

Lookup result for `Cc1ccc(NC(=O)c2ccc(CSc3ccccn3)cc2)cc1` ; measured inhibition: 14.1

Form: molecule = `CCOC(=O)Nc1ccc2c(c1)nc(CN1CCOCC1)n2C` ; inhibition = -2.73

Memo: `CCCCN1/C(=C/c2ccc3ccccc3[n+]2CC)Sc2ccccc21` , reported inhibition: -5.31

// recorded inhibition for COc1cc(/C=C(\C#N)C(=O)NCC2CCCO2)cc(OC)c1OC (centres undefined) : 2.41

Consider `O=C(CCCn1cnc([N+](=O)[O-])n1)Nc1cccc(Cl)c1Cl` . Its measured inhibition is 1.24

###

# assay-explanation: M. tuberculosis H37Rv growth inhibitors, H37Rv strain (AID 1626);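 further: bacteria incubated seven days before Alamar blue readout; 0% = bacteria only wells and 100% = bacteria with antibiotic wells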
# settings: stronger effect = higher value, concentration not given here
About 2,000 (0.91%) of roughly 220,000 compounds were called active. About 2% were inconclusive and are not listed. These entries were drawn from the full list. Entries with a potency or affinity are not part of this list.
In this section, each of the compounds is paired with its reported inhibition.
Response body: numeric value in %, unit text excluded.

>  <smiles-representation>
COc1ccc(Cl)cc1C(=O)Nc1ccc(NC(=O)C(C)C)cc1

>  <observed-result>
6.21

$$$$
>  <smiles-representation>
COc1cc(OC)c(N(C)C(=O)CCNC(=O)Cn2cnc3ccccc3c2=O)cc1Cl

>  <observed-result>
-0.76

$$$$
>  <smiles-representation>
COc1cc(CNC(C)(C)CO)cc(Br)c1OCc1ccc(Cl)cc1

>  <observed-result>
9.24

$$$$
>  <smiles-representation>
N#Cc1c(N)n(CCc2ccc(F)cc2)c2nc3ccccc3nc12

>  <observed-result>
7.97

$$$$
>  <smiles-representation>
O=C(Nc1nc2ccccc2n1Cc1ccc(Cl)cc1)c1ccco1

>  <observed-result>
16.1

$$$$
>  <smiles-representation>
CCCCN(CCCC)Cc1cc2ccccc2c2c1COC2

>  <observed-result>
4.07

$$$$

Per the record, `CCOc1ccc(-n2c(N)c(-c3nc4ccccc4n3C)c3nc4ccccc4nc32)cc1` has inhibition of 70.5

inhibition measured on `COc1cc(CNC(C)(C)CO)cc(Br)c1OCc1ccc(Cl)cc1Cl` = 62.5

// recorded inhibition for `O=C(Nc1ccn(Cc2c(F)c(F)cc(F)c2F)n1)c1cccc(Cn2cc([N+](=O)[O-])cn2)c1` : 2.31

Lab book: inhibition of `Cc1ccc(NC(=O)Cn2c(O)c(N=NC(=O)c3cc([N+](=O)[O-])ccc3O)c3ccccc32)cc1` noted as 45.8

Hello, the source for this data is PubChem BioAssay AID1626, in case you need it.
